Provenance of the data: ChEMBL document CHEMBL1128079

- target system: Retinoic acid receptor gamma (Homo sapiens)
- Sequence (P13631 whole entry): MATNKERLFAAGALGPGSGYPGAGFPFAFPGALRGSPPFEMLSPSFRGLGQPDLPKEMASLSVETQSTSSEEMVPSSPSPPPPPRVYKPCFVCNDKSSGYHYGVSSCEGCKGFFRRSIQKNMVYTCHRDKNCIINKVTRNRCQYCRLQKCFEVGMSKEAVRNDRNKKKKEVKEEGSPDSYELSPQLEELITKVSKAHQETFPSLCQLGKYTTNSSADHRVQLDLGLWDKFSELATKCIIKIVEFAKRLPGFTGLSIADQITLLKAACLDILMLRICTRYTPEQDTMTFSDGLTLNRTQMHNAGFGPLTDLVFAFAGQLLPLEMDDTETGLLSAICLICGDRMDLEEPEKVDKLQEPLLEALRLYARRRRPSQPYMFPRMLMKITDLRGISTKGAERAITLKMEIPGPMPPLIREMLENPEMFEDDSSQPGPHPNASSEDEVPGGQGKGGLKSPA
- run description: Agonist activity for retinoic acid receptor RAR gamma in transcriptional activation assay
- Type: functional
Response field label takes criterion met when EC50 is strictly below 30 nM and criterion not met in all other cases.

query: Criterion: EC50 strictly below 30 nM. Is it met by C/C(=C\c1ccc(C(=O)O)s1)c1ccc2c(c1)C(C)(C)CCC2(C)C ?
result: criterion met

query: Would you kindly repeat that for C/C(=C\c1ncc(C(=O)O)s1)c1cc2c(cc1C)C(C)(C)CCC2(C)C ?
result: criterion not met

query: Would you kindly repeat that for C/C(=C\c1ncc(C(=O)O)s1)c1ccc2c(c1)C(C)(C)CCC2(C)C ?
result: criterion not met

query: Would you kindly repeat that for C/C(=C\c1ccc(C(=O)O)s1)c1cc2c(cc1C)C(C)(C)CCC2(C)C ?
result: criterion not met

query: Would you kindly repeat that for C/C(=C\c1cc(C(=O)O)cs1)c1cc2c(cc1C)C(C)(C)CCC2(C)C ?
result: criterion not met

---

- target system: Retinoic acid receptor beta (Homo sapiens, UniProt P10826)
- Sequence (P10826 whole entry): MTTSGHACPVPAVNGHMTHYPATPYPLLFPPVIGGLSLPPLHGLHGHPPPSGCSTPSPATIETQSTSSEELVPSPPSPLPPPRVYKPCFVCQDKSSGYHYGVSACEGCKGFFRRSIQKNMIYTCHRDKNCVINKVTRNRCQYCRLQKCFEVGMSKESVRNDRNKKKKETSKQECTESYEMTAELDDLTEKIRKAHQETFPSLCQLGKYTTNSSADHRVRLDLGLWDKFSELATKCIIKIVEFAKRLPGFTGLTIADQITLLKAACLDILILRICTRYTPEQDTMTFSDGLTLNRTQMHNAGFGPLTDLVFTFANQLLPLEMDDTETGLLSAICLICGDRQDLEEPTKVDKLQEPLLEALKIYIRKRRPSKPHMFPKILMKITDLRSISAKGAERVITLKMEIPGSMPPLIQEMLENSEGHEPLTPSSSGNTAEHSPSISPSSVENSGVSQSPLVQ
- run description: Agonist activity for retinoic acid receptor RAR beta in transcriptional activation assay
- Format: functional
Record form. Attribute: EC50. Fill in for each entry.
Use nM as the unit, but write only the number.

query: Fill blank: measured EC50 of the molecule C/C(=C\c1cc(C(=O)O)cs1)c1cc2c(cc1C)C(C)(C)CCC2(C)C is ____.
result: 1990

query: Would you kindly repeat that for C/C(=C\c1ccc(C(=O)O)s1)c1ccc2c(c1)C(C)(C)CCC2(C)C ?
result: 29

query: Would you kindly repeat that for C/C(=C\c1ncc(C(=O)O)s1)c1ccc2c(c1)C(C)(C)CCC2(C)C ?
result: 46

query: Would you kindly repeat that for C/C(=C\c1ccc(C(=O)O)s1)c1cc2c(cc1C)C(C)(C)CCC2(C)C ?
result: 56

query: Would you kindly repeat that for C/C(=C\c1ncc(C(=O)O)s1)c1cc2c(cc1C)C(C)(C)CCC2(C)C ?
result: 220

---

Record form. Attribute: EC50. Fill in for each entry.
- target system: Retinoic acid receptor RXR-gamma (Homo sapiens)
- Sequence (P48443 whole entry): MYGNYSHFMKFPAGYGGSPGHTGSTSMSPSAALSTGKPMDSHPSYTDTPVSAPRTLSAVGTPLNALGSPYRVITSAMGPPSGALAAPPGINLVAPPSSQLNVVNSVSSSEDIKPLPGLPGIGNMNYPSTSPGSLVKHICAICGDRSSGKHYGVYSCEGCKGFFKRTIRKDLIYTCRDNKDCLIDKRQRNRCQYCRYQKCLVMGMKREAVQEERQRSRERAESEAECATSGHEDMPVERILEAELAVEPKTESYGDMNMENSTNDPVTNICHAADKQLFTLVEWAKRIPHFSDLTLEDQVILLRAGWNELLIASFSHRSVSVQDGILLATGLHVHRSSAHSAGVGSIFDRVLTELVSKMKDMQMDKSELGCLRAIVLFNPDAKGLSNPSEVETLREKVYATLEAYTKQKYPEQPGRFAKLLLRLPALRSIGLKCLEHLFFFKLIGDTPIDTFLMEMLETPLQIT
- run description: Agonist activity for retinoic acid receptor RXR gamma in transcriptional activation assay
- Type: functional
- measurement context: read-out: EC50
Use nM as the unit, but write only the number.

query: Fill blank: measured EC50 of the compound C/C(=C\c1ncc(C(=O)O)s1)c1ccc2c(c1)C(C)(C)CCC2(C)C is ____.
result: 160

query: Would you kindly repeat that for C/C(=C\c1ccc(C(=O)O)s1)c1cc2c(cc1C)C(C)(C)CCC2(C)C ?
result: 33

query: Would you kindly repeat that for C/C(=C\c1cc(C(=O)O)cs1)c1cc2c(cc1C)C(C)(C)CCC2(C)C ?
result: 105

query: Would you kindly repeat that for C/C(=C\c1ncc(C(=O)O)n1S(=O)(=O)N(C)C)c1cc2c(cc1C)C(C)(C)CCC2(C)C ?
result: 86

query: Would you kindly repeat that for C/C(=C\c1ccc(C(=O)O)s1)c1ccc2c(c1)C(C)(C)CCC2(C)C ?
result: 2300

query: Would you kindly repeat that for C/C(=C\c1nc(C(=O)O)c[nH]1)c1cc2c(cc1C)C(C)(C)CCC2(C)C ?
result: 170

query: Would you kindly repeat that for C/C(=C\c1ncc(C(=O)O)s1)c1cc2c(cc1C)C(C)(C)CCC2(C)C ?
result: 4
